Listing of entries alongside the reported viability at 10 µM.
- experiment: Neuroprotective activity against glutamate-stimulated rat cortical cells assessed as cell viability at 10 uM after 1 hr by LDH assay relative to control
- Type: functional
- setup_conditions: read-out: Activity
Respond numerically; units are % and should not be typed.

In the examples that follow, each entry is paired with its recorded viability at 10 µM.
**Q:** Report viability at 10 µM for COC(=O)C1=CO[C@@H](O[C@@H]2O[C@H](CO)[C@@H](O)[C@H](O)[C@H]2O)[C@@H]2C(CO)=C[C@@H](OC(=O)/C=C/c3ccc(O)cc3)[C@H]12 please.
**A:** 26.8

**Q:** Report viability at 10 µM for O=c1c(O[C@@H]2O[C@H](CO)[C@H](O)[C@H](O)[C@H]2O[C@@H]2O[C@H](CO)[C@@H](O)[C@H](O)[C@H]2O)c(-c2ccc(O)cc2)oc2cc(O)cc(O)c12 please.
**A:** 25.2

More entries:
**Q:** Report viability at 10 µM for COC(=O)C1=CO[C@@H](O[C@@H]2O[C@H](CO)[C@@H](O)[C@H](O)[C@H]2O)[C@@H]2C(CO)=C[C@@H](OC(=O)/C=C/c3ccc(OC)cc3)[C@H]12 please.
**A:** 52.8

**Q:** Report viability at 10 µM for COc1cc(/C=C/C(=O)OC[C@H]2O[C@@H](O[C@H]3[C@H](Oc4c(-c5ccc(O)c(O)c5)oc5cc(O)cc(O)c5c4=O)O[C@H](CO)[C@H](O)[C@@H]3O)[C@H](O)[C@@H](O)[C@@H]2O)ccc1O please.
**A:** 75

**Q:** Report viability at 10 µM for COc1cc(/C=C/C(=O)OC[C@H]2O[C@@H](O[C@H]3[C@H](Oc4c(-c5ccc(O)c(O)c5)oc5cc(O)cc(O)c5c4=O)O[C@H](CO)[C@@H](O)[C@@H]3O)[C@H](O)[C@@H](O)[C@@H]2O)ccc1O please.
**A:** 73.7

---

Listing of entries alongside the reported viability at 1 µM.
- experiment: Neuroprotective activity against glutamate-stimulated rat cortical cells assessed as cell viability at 1 uM after 1 hr by LDH assay relative to control
- Type: functional
- setup_conditions: read-out: Activity
Respond numerically; units are % and should not be typed.

**Q:** Report viability at 1 µM for O=c1c(O[C@@H]2O[C@H](CO)[C@H](O)[C@H](O)[C@H]2O[C@@H]2O[C@H](CO)[C@@H](O)[C@H](O)[C@H]2O)c(-c2ccc(O)cc2)oc2cc(O)cc(O)c12 please.
**A:** 27

More entries:
**Q:** Report viability at 1 µM for COC(=O)C1=CO[C@@H](O[C@@H]2O[C@H](CO)[C@@H](O)[C@H](O)[C@H]2O)[C@@H]2C(CO)=C[C@@H](OC(=O)/C=C/c3ccc(OC)cc3)[C@H]12 please.
**A:** 71.8

**Q:** Report viability at 1 µM for COC(=O)C1=CO[C@@H](O[C@@H]2O[C@H](CO)[C@@H](O)[C@H](O)[C@H]2O)[C@@H]2C(CO)=C[C@@H](OC(=O)/C=C\c3ccc(O)cc3)[C@H]12 please.
**A:** 25.7

**Q:** Report viability at 1 µM for O=c1c(O[C@@H]2O[C@H](CO)[C@H](O)[C@H](O)[C@H]2O[C@@H]2O[C@H](CO)[C@@H](O)[C@H](O)[C@H]2O)c(-c2ccc(O)c(O)c2)oc2cc(O)cc(O)c12 please.
**A:** 66

**Q:** Report viability at 1 µM for COC(=O)C1=CO[C@@H](O[C@@H]2O[C@H](CO)[C@@H](O)[C@H](O)[C@H]2O)[C@@H]2C(CO)=C[C@@H](OC(=O)/C=C/c3ccc(O)cc3)[C@H]12 please.
**A:** 62.2

---

Listing of entries alongside the reported viability at 10 µM.
- experiment: Neuroprotective activity against glutamate-stimulated rat cortical cells assessed as cell viability at 10 uM after 1 hr by LDH assay relative to control
- Format: functional
- setup_conditions: read-out: Activity
Respond numerically; units are % and should not be typed.

**Q:** Report viability at 10 µM for COC(=O)C1=CO[C@@H](O[C@@H]2O[C@H](CO)[C@@H](O)[C@H](O)[C@H]2O)[C@@H]2C(CO)=C[C@@H](OC(=O)/C=C\c3ccc(OC)cc3)[C@H]12 please.
**A:** 23.7

**Q:** Report viability at 10 µM for COc1cc(/C=C/C(=O)OC[C@H]2O[C@@H](O[C@H]3[C@H](Oc4c(-c5ccc(O)cc5)oc5cc(O)cc(O)c5c4=O)O[C@H](CO)[C@H](O)[C@@H]3O)[C@H](O)[C@@H](O)[C@@H]2O)ccc1O please.
**A:** 25.2

**Q:** Report viability at 10 µM for COC(=O)C1=CO[C@@H](O[C@@H]2O[C@H](CO)[C@@H](O)[C@H](O)[C@H]2O)[C@@H]2C(CO)=C[C@@H](OC(=O)/C=C\c3ccc(O)cc3)[C@H]12 please.
**A:** 6.3

Attention now turns to another entry.
**Q:** Report viability at 10 µM for O=c1c(O[C@@H]2O[C@H](CO)[C@H](O)[C@H](O)[C@H]2O[C@@H]2O[C@H](CO)[C@@H](O)[C@H](O)[C@H]2O)c(-c2ccc(O)c(O)c2)oc2cc(O)cc(O)c12 please.
**A:** 54

---

- experiment: Neuroprotective activity against glutamate-stimulated rat cortical cells assessed as cell viability at 1 uM after 1 hr by LDH assay relative to control
- Assay type: functional
- setup_conditions: read-out: Activity
readout_type: viability at 1 µM

In the examples that follow, each entry is paired with its recorded viability at 1 µM.
**Q:** Report viability at 1 µM for COC(=O)C1=CO[C@@H](O[C@@H]2O[C@H](CO)[C@@H](O)[C@H](O)[C@H]2O)[C@@H]2C(CO)=C[C@@H](OC(=O)/C=C\c3ccc(OC)cc3)[C@H]12 please.
**A:** 54.6%

**Q:** Report viability at 1 µM for COc1cc(/C=C/C(=O)OC[C@H]2O[C@@H](O[C@H]3[C@H](Oc4c(-c5ccc(O)c(O)c5)oc5cc(O)cc(O)c5c4=O)O[C@H](CO)[C@H](O)[C@@H]3O)[C@H](O)[C@@H](O)[C@@H]2O)ccc1O please.
**A:** 72.9%

**Q:** Report viability at 1 µM for COc1cc(/C=C/C(=O)OC[C@H]2O[C@@H](O[C@H]3[C@H](Oc4c(-c5ccc(O)c(O)c5)oc5cc(O)cc(O)c5c4=O)O[C@H](CO)[C@@H](O)[C@@H]3O)[C@H](O)[C@@H](O)[C@@H]2O)ccc1O please.
**A:** 71.5%

Attention now turns to another entry.
**Q:** Report viability at 1 µM for COc1cc(/C=C/C(=O)OC[C@H]2O[C@@H](O[C@H]3[C@H](Oc4c(-c5ccc(O)cc5)oc5cc(O)cc(O)c5c4=O)O[C@H](CO)[C@H](O)[C@@H]3O)[C@H](O)[C@@H](O)[C@@H]2O)ccc1O please.
**A:** 66.9%
